Listed here: items and their measured max activation.
Target: NAD-dependent protein deacetylase sirtuin-1 (Homo sapiens) (UniProt Q96EB6)
Sequence (whole entry): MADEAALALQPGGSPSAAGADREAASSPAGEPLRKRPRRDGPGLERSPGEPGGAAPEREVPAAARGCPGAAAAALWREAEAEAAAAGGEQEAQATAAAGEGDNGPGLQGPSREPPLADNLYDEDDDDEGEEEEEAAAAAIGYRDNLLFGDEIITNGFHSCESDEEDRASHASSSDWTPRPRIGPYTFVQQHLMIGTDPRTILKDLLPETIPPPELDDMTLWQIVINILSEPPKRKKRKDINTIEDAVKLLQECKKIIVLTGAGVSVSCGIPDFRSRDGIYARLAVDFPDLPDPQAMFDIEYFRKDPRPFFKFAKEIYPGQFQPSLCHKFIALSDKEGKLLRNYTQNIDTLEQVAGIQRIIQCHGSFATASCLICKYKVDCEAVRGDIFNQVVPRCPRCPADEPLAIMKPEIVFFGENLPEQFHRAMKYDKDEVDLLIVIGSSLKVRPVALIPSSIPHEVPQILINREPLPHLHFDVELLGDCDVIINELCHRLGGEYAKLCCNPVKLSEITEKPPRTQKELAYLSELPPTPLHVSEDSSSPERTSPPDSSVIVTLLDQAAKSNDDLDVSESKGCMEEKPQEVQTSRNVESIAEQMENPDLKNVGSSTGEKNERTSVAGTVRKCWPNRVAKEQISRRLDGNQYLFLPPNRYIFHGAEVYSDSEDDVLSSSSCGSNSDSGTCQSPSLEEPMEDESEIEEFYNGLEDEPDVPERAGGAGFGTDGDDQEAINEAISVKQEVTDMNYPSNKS
Test: Activation of N-terminal His6-tagged SIRT1 (156 to 664 amino acid residues) (unknown origin) expressed in Escherichia coli BL21(DE3) using ac-RHKKac-AMC as substrate at 50 uM after 45 mins by fluorimetric analysis relative to control

| Smiles Record | max activation |
| --- | --- |
| O=C(Nc1ccccc1-c1cn2c(CN3CCNCC3)csc2n1)c1ccc2occc2c1 | 380% |
| O=C(N/N=C/c1cc(Br)c(O)c(Br)c1O)c1cc2ccccc2cc1O | 375% |
| O=C(N/N=C/c1cc(Br)c(O)c(Br)c1O)c1ccc(-c2ccccn2)cc1 | 467% |
| O=C(Nc1ccccc1-c1cn2c(CN3CCNCC3)csc2n1)c1cnc2ccccc2n1 | 781% |
| O=C(N/N=C/c1cc(Br)c(O)c(Br)c1O)c1ccc2cc(-c3ccccc3)ccc2c1 | 194% |
| COc1c(Br)cc(/C=N/NC(=O)c2ccc3cc(Br)ccc3c2)c(O)c1Br | 119% |
| COc1c(Br)cc(/C=N/NC(=O)c2ccc(-c3ccccc3)cc2)c(O)c1Br | 242% |
| O=C(Nc1ccccc1-c1cn2c(CN3CCNCC3)csc2n1)C1CCCC1 | 383% |
| COc1ccc2cc(C(=O)N/N=C/c3cc(Br)c(O)c(Br)c3O)ccc2c1 | 624% |
| COc1cc(C(=O)Nc2ccccc2-c2cn3c(CN4CCNCC4)csc3n2)cc(OC)c1OC | 271% |
| O=C(N/N=C/c1cc(Br)c(O)c(Br)c1O)c1ccc(-c2cccnc2)cc1 | 314% |
| Oc1ccc(/C=C/c2cc(O)cc(O)c2)cc1 | 802% |
| O=C(N/N=C/c1cc(Br)c(O)c(Br)c1O)c1ccc(-c2ccc3c(c2)OCO3)cc1 | 380% |
| O=C(Nc1ccccc1-c1cn2c(CN3CCNCC3)csc2n1)c1cccc2cccnc12 | 208% |
| O=C(N/N=C/c1cc(Br)c(O)c(Br)c1O)c1ccc(-c2ccncc2)cc1 | 390% |

Origin of measurements: ChEMBL document CHEMBL2331243
